# Tested on: Nilaparvata lugens
# assay.overview: Insecticidal test against Nilaparvata lugens, root part of rice seedling immersed
# Type: in vivo
# assay.setup: 144 h, 2% acetone aqueous solution, 10 young larvae, 25° C., after 6 days, read-out: mortality rate
quantity: mortality at 100 ppm

>  <input.smiles>
CCS(=O)(=O)c1c(-c2nc3cc(C(F)(F)F)ncn3n2)nn(C)c1NC(C)=O

>  <mortality at 100 ppm>
≥ 50%

$$$$
>  <input.smiles>
CCS(=O)(=O)c1c(-c2cn3cnc(C(F)(F)F)cc3n2)nn(C)c1N

>  <mortality at 100 ppm>
≥ 50%

$$$$
>  <input.smiles>
CCS(=O)(=O)c1c(-c2nc3cc(C(F)(F)F)ncn3c2Br)nn(C)c1NC(=O)C(F)(F)F

>  <mortality at 100 ppm>
≥ 50%

$$$$
>  <input.smiles>
CCSc1c(-c2cn3cnc(C(F)(F)F)cc3n2)nn(C)c1N(C)C(=O)C(F)(F)F

>  <mortality at 100 ppm>
≥ 50%

$$$$
>  <input.smiles>
CCS(=O)(=O)c1c(-c2cn3cnc(C(F)(F)F)cc3n2)nn(C)c1NC(=O)C(F)(F)F

>  <mortality at 100 ppm>
≥ 50%

$$$$

Ask | Could you tell me which mortality at 100 ppm is on file for CCS(=O)(=O)c1c(-c2nc3cc(C(F)(F)F)ncn3c2Cl)nn(C)c1NC(=O)C(F)(F)F ?
Reply | ≥ 50%

Ask | Could you tell me which mortality at 100 ppm is on file for CCSc1c(-c2cn3cnc(C(F)(F)F)cc3n2)nn(C)c1N ?
Reply | ≥ 50%
